- Tested on: Plasmodium berghei
- METHOD: Change in mean survival time for control (average 6.2 days) versus treated mice (Mus musculus) 72 hrs after 640 mg/kg subcutaneous dose
- Type: functional
Form field: Delta MST (one value per entry).

- SUBSTANCE_SMILES: "CCCN(CCC)Cc1cc(Nc2ccnc3cc(Cl)ccc23)cc(-c2ccc(Cl)cc2)c1O"
  Delta MST, days: 18.1
- SUBSTANCE_SMILES: "CCN(CC)Cc1cc(Nc2ccnc3cc(Cl)ccc23)cc(-c2ccc(Cl)c(Cl)c2)c1O"
  Delta MST, days: 10.9

----------
- Test system: Plasmodium berghei
- METHOD: Antimalarial activity as 60-day survivors in infected mice (Mus musculus) after single 320mg/kg subcutaneous dose 72 hr post infection
- Assay type: functional
The following compounds are listed with their measured No. of mice cured values.
MEASURE_NAME: No. of mice cured

- COMPOUND: "CCN(CC)Cc1cc(Nc2ccnc3cc(Cl)ccc23)cc(-c2ccncc2)c1O"
  RECORDED_MEASUREMENT: 1
- COMPOUND: "CCN(CC)Cc1cc(Nc2cc[n+]([O-])c3cc(Cl)ccc23)cc(-c2cccc(C(F)(F)F)c2)c1O"
  RECORDED_MEASUREMENT: 1
- COMPOUND: "CCN(CC)Cc1cc(Nc2ccnc3cc(Cl)ccc23)cc(-c2ccccc2)c1O"
  RECORDED_MEASUREMENT: 5
- COMPOUND: "CCN(CC)Cc1cc(Nc2cc[n+]([O-])c3cc(Cl)ccc23)cc(-c2cccc(Cl)c2)c1O"
  RECORDED_MEASUREMENT: 4
- COMPOUND: "CCN(CC)Cc1cc(Nc2cc[n+]([O-])c3cc(Cl)ccc23)cc(-c2ccccc2OC)c1O"
  RECORDED_MEASUREMENT: 1
- COMPOUND: "CC(C)(C)NCc1cc(Nc2cc[n+]([O-])c3cc(Cl)ccc23)cc(-c2ccccc2)c1O"
  RECORDED_MEASUREMENT: 3
- COMPOUND: "CCN(CC)Cc1cc(Nc2ccnc3cc(Cl)ccc23)cc(-c2cccc(F)c2)c1O"
  RECORDED_MEASUREMENT: 1
- COMPOUND: "CCN(CC)Cc1cc(Nc2cc[n+]([O-])c3cc(Cl)ccc23)ccc1O"
  RECORDED_MEASUREMENT: 5
- COMPOUND: "CCN(CC)Cc1cc(Nc2ccnc3cc(Cl)ccc23)cc(-c2ccc(O)cc2)c1O"
  RECORDED_MEASUREMENT: 2
- COMPOUND: "CCC(C)NCc1cc(Nc2ccnc3cc(Cl)ccc23)cc(-c2ccc(Cl)cc2)c1O (configuration not stated)"
  RECORDED_MEASUREMENT: 1
- COMPOUND: "CCN(CC)Cc1cc(Nc2ccnc3cc(Cl)ccc23)cc(-c2cccc3ccccc23)c1O"
  RECORDED_MEASUREMENT: 1
- COMPOUND: "CCN(CC)Cc1cc(Nc2cc[n+]([O-])c3cc(Cl)ccc23)cc(CN(CC)CC)c1O"
  RECORDED_MEASUREMENT: 3
- COMPOUND: "CCC(C)NCc1cc(Nc2cc[n+]([O-])c3cc(Cl)ccc23)cc(-c2ccc(Cl)cc2)c1O (configuration not stated)"
  RECORDED_MEASUREMENT: 3
- COMPOUND: "CC(C)(C)NCc1cc(Nc2cc[n+]([O-])c3cc(Cl)ccc23)cc(-c2ccc(Cl)c(Cl)c2)c1O"
  RECORDED_MEASUREMENT: 3
- COMPOUND: "CCN(CC)Cc1cc(Nc2ccnc3cc(Cl)ccc23)ccc1O.Cl"
  RECORDED_MEASUREMENT: 5
- COMPOUND: "CCN(CC)Cc1cc(Nc2cc[n+]([O-])c3cc(Cl)ccc23)cc(-c2ccc(OC)c(OC)c2)c1O"
  RECORDED_MEASUREMENT: 3
- COMPOUND: "CCN(CC)Cc1cc(Nc2cc[n+]([O-])c3cc(Cl)ccc23)cc(-c2ccc(Cl)c(Cl)c2)c1O"
  RECORDED_MEASUREMENT: 5
- COMPOUND: "CCN(CC)Cc1cc(Nc2cc[n+]([O-])c3cc(Cl)ccc23)cc(-c2ccccc2Cl)c1O"
  RECORDED_MEASUREMENT: 3
- COMPOUND: "CCN(CC)Cc1cc(Nc2ccnc3cc(Cl)ccc23)cc(-c2ccc(OC)cc2)c1O"
  RECORDED_MEASUREMENT: 3
- COMPOUND: "CCCN(CCC)Cc1cc(Nc2ccnc3cc(Cl)ccc23)cc(-c2ccc(Cl)cc2)c1O"
  RECORDED_MEASUREMENT: 4
- COMPOUND: "CCN(CC)Cc1cc(Nc2ccnc3cc(Cl)ccc23)cc(-c2ccccn2)c1O"
  RECORDED_MEASUREMENT: 3
- COMPOUND: "CCN(CC)Cc1cc(Nc2ccnc3cc(Cl)ccc23)cc(-c2ccc(Cl)cc2)c1O [TEBAQUINE]"
  RECORDED_MEASUREMENT: 2
- COMPOUND: "CC(C)(C)NCc1cc(Nc2cc[n+]([O-])c3cc(Cl)ccc23)cc(-c2ccc(Cl)cc2)c1O"
  RECORDED_MEASUREMENT: 4
- COMPOUND: "Oc1c(CNC23CC4CC(CC(C4)C2)C3)cc(Nc2ccnc3cc(Cl)ccc23)cc1-c1ccc(Cl)cc1"
  RECORDED_MEASUREMENT: 5
- COMPOUND: "CCN(CC)Cc1cc(Nc2ccnc3cc(Cl)ccc23)cc(-c2c(F)c(F)c(F)c(F)c2F)c1O"
  RECORDED_MEASUREMENT: 5
- COMPOUND: "CCN(CC)Cc1cc(Nc2cc[n+]([O-])c3cc(Cl)ccc23)cc(-c2ccc(C(F)(F)F)cc2)c1O"
  RECORDED_MEASUREMENT: 2
- COMPOUND: "[O-][n+]1ccc(Nc2cc(CN3CCCC3)c(O)c(-c3ccc(Cl)c(Cl)c3)c2)c2ccc(Cl)cc21"
  RECORDED_MEASUREMENT: 5
- COMPOUND: "CCN(CC)Cc1cc(Nc2ccnc3cc(Cl)ccc23)cc(-c2cccnc2)c1O"
  RECORDED_MEASUREMENT: 4
- COMPOUND: "CCN(CC)Cc1cc(Nc2ccnc3cc(Cl)ccc23)cc(CN(CC)CC)c1O [CYLCLOQUINE]"
  RECORDED_MEASUREMENT: 5
- COMPOUND: "CN(C)Cc1cc(Nc2ccnc3cc(Cl)ccc23)cc(-c2ccc(Cl)cc2)c1O"
  RECORDED_MEASUREMENT: 1
- COMPOUND: "CCN(CC)Cc1cc(Nc2cc[n+]([O-])c3cc(Cl)ccc23)cc(-c2ccccc2)c1O"
  RECORDED_MEASUREMENT: 3
- COMPOUND: "CC(C)(C)NCc1cc(Nc2ccnc3cc(Cl)ccc23)cc(-c2ccc(Cl)c(Cl)c2)c1O"
  RECORDED_MEASUREMENT: 3

Just for reference, ChEMBL document CHEMBL1123290 is where these values come from.
